Listed below: viability, T/C values for each entry.
# Test system: 967376-340-R-J2-PDC multicell spheroid viability
# test.description: Anticancer human tumor 967376-340-R-J2-PDC patient-derived colon adenocarcinoma cell line growth inhibition [PI3K]
# assay.context: second compound 0.00316 µM; first compound 0.316 µM; stronger effect = lower value
Output spec: scalar in %, unitless text.

A selection of reference data follows.
Cn1nccc1Nc1nccc(-c2ccn(C(CO)c3ccc(Cl)c(F)c3)c(=O)c2)n1 (stereo not drawn) + COc1c(OCCCN2CCOCC2)ccc2c3n(c(=NC(=O)c4cnc(N)nc4)nc12)CCN3
86.2
CCN1CCN(Cc2ccc(Nc3ncc(F)c(-c4cc(F)c5nc(C)n(C(C)C)c5c4)n3)nc2)CC1 + CC(Nc1ccc2c(c1)OCCn1cc(N3C(=O)OCC3C(F)F)nc1-2)C(N)=O
80.9

**Query** Report measured viability, T/C; entry is CNC(=O)c1ccc(N2C(=S)N(c3ccc(C#N)c(C(F)(F)F)c3)C(=O)C2(C)C)cc1F + CC(Nc1ccc2c(c1)OCCn1cc(N3C(=O)OCC3C(F)F)nc1-2)C(N)=O
**Result** 93.1

====

# Tested on: 967376-340-R-J2-PDC multicell spheroid viability
# test.description: Anticancer human tumor 967376-340-R-J2-PDC cell line growth inhibition [PI3K];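 also: spheroids exposed to agents for 7 days before read-out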;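 as to viability, T/C: luminescence used as surrogate of cell viability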
# assay.context: second compound 0.0316 µM; first compound 0.0316 µM; stronger effect = lower value
assay.readout: viability, T/C (%)
Output spec: scalar in %, unitless text.

CC(=O)c1c(C)c2cnc(Nc3ccc(N4CCNCC4)cn3)nc2n(C2CCCC2)c1=O + Cc1nc(NC(=O)N2CCCC2C(N)=O)sc1-c1ccnc(C(C)(C)C(F)(F)F)c1
102
C[C@@H](NC(=O)c1ncnc(N)c1Cl)c1ncc(C(=O)Nc2cc(C(F)(F)F)c(Cl)cn2)s1 + CC(Nc1ncnc2nc[nH]c12)c1cc2cccc(Cl)c2c(=O)n1-c1ccccc1
100
CC(C)n1nc(-c2ccc3oc(N)nc3c2)c2c(N)ncnc21 + CC(Nc1ccc2c(c1)OCCn1cc(N3C(=O)OCC3C(F)F)nc1-2)C(N)=O
60.5
CC1(C)CCC(CN2CCN(c3ccc(C(=O)NS(=O)(=O)c4ccc(NCC5CCOCC5)c([N+](=O)[O-])c4)c(Oc4cnc5[nH]ccc5c4)c3)CC2)=C(c2ccc(Cl)cc2)C1 + CC(Nc1ccc2c(c1)OCCn1cc(N3C(=O)OCC3C(F)F)nc1-2)C(N)=O
67.3

**Query** Report measured viability, T/C; entry is CC(Cn1ccc(-c2ccc(C#N)c(Cl)c2)n1)NC(=O)c1cc(C(C)O)[nH]n1 (stereo not given) + Cc1nc(NC(=O)N2CCCC2C(N)=O)sc1-c1ccnc(C(C)(C)C(F)(F)F)c1
**Result** 90.6

====

# Tested on: 967376-340-R-J2-PDC multicell spheroid viability
# test.description: Anticancer human tumor 967376-340-R-J2-PDC cell line growth inhibition [PI3K];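 also: spheroids exposed to agents for 7 days before read-out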
# assay.context: curve of first compound; second compound 0.0316 µM
pIC50: −log10 of the molar value.
assay.readout: pIC50

A selection of reference data follows.
C[C@@H](NC(=O)c1ncnc(N)c1Cl)c1ncc(C(=O)Nc2cc(C(F)(F)F)c(Cl)cn2)s1 + CC(Nc1ccc2c(c1)OCCn1cc(N3C(=O)OCC3C(F)F)nc1-2)C(N)=O
< 5.00
CC1(C)CCC(CN2CCN(c3ccc(C(=O)NS(=O)(=O)c4ccc(NCC5CCOCC5)c([N+](=O)[O-])c4)c(Oc4cnc5[nH]ccc5c4)c3)CC2)=C(c2ccc(Cl)cc2)C1 + COc1c(OCCCN2CCOCC2)ccc2c3n(c(=NC(=O)c4cnc(N)nc4)nc12)CCN3
5.10
CC(=O)c1c(C)c2cnc(Nc3ccc(N4CCNCC4)cn3)nc2n(C2CCCC2)c1=O + CC(Nc1ccc2c(c1)OCCn1cc(N3C(=O)OCC3C(F)F)nc1-2)C(N)=O
< 7.00
CC1(C)CCC(Nc2ncc(C(F)(F)F)c(-c3c[nH]c4c(P(C)(C)=O)c(C#N)ccc34)n2)CN1 (stereo unspecified) + CC(Nc1ncnc2nc[nH]c12)c1cc2cccc(Cl)c2c(=O)n1-c1ccccc1
< 5.00
C#Cc1c(F)ccc2cc(O)cc(-c3ncc4c(N5CC6CCC(C5)N6)nc(OCC56CCCN5CC(F)C6)nc4c3F)c12 (stereo unspecified) + COc1c(OCCCN2CCOCC2)ccc2c3n(c(=NC(=O)c4cnc(N)nc4)nc12)CCN3
< 5.00
CC1(C)CCC(Nc2ncc(C(F)(F)F)c(-c3c[nH]c4c(P(C)(C)=O)c(C#N)ccc34)n2)CN1 (stereo unspecified) + CC(Nc1ccc2c(c1)OCCn1cc(N3C(=O)OCC3C(F)F)nc1-2)C(N)=O
5.18

**Query** Report measured pIC50; entry is Cn1nccc1Nc1nccc(-c2ccn(C(CO)c3ccc(Cl)c(F)c3)c(=O)c2)n1 (stereo unspecified) + COc1c(OCCCN2CCOCC2)ccc2c3n(c(=NC(=O)c4cnc(N)nc4)nc12)CCN3
**Result** < 5.00

**Query** Report measured pIC50; entry is C=CC(=O)N1CCN(c2nc(=O)n(-c3c(C)ccnc3C(C)C)c3nc(-c4c(O)cccc4F)c(F)cc23)C(C)C1 (stereo unspecified) + Cc1nc(NC(=O)N2CCCC2C(N)=O)sc1-c1ccnc(C(C)(C)C(F)(F)F)c1
**Result** < 5.00

**Query** Report measured pIC50; entry is CC(Cn1ccc(-c2ccc(C#N)c(Cl)c2)n1)NC(=O)c1cc(C(C)O)[nH]n1 (stereo unspecified) + CC(Nc1ccc2c(c1)OCCn1cc(N3C(=O)OCC3C(F)F)nc1-2)C(N)=O
**Result** < 5.00

**Query** Report measured pIC50; entry is CCN1CCN(Cc2ccc(Nc3ncc(F)c(-c4cc(F)c5nc(C)n(C(C)C)c5c4)n3)nc2)CC1 + CC(Nc1ncnc2nc[nH]c12)c1cc2cccc(Cl)c2c(=O)n1-c1ccccc1
**Result** < 6.00

**Query** Report measured pIC50; entry is C[C@@H](NC(=O)c1ncnc(N)c1Cl)c1ncc(C(=O)Nc2cc(C(F)(F)F)c(Cl)cn2)s1 + Cc1nc(NC(=O)N2CCCC2C(N)=O)sc1-c1ccnc(C(C)(C)C(F)(F)F)c1
**Result** < 5.00

====

# Test system: 967376-340-R-J2-PDC multicell spheroid viability
# test.description: Anticancer human tumor 967376-340-R-J2-PDC cell line growth inhibition [PI3K];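 also: spheroids exposed to agents for 7 days before read-out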;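 as to viability, T/C: luminescence used as surrogate of cell viability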
# assay.context: second compound 0.1 µM; first compound 0.316 µM; stronger effect = lower value
Listed below: viability, T/C values for each entry.
Output spec: scalar in %, unitless text.

CC1(C)CCC(CN2CCN(c3ccc(C(=O)NS(=O)(=O)c4ccc(NCC5CCOCC5)c([N+](=O)[O-])c4)c(Oc4cnc5[nH]ccc5c4)c3)CC2)=C(c2ccc(Cl)cc2)C1 + CC(Nc1ccc2c(c1)OCCn1cc(N3C(=O)OCC3C(F)F)nc1-2)C(N)=O
79.1

// switching to the query molecule
**Query** Report measured viability, T/C; entry is C=CC(=O)N1CCN(c2nc(=O)n(-c3c(C)ccnc3C(C)C)c3nc(-c4c(O)cccc4F)c(F)cc23)C(C)C1 (configuration not stated) + COc1c(OCCCN2CCOCC2)ccc2c3n(c(=NC(=O)c4cnc(N)nc4)nc12)CCN3
**Result** 63.9

====

# System: 967376-340-R-J2-PDC multicell spheroid viability
# test.description: Anticancer human tumor 967376-340-R-J2-PDC cell line growth inhibition [PI3K];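 also: spheroids exposed to agents for 7 days before read-out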;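 as to viability, T/C: luminescence used as surrogate of cell viability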
# assay.context: second compound 0.0316 µM; first compound 0.0316 µM; stronger effect = lower value
assay.readout: viability, T/C (%)
Output spec: scalar in %, unitless text.

Cn1nccc1Nc1nccc(-c2ccn(C(CO)c3ccc(Cl)c(F)c3)c(=O)c2)n1 (stereo not given) + CC(Nc1ccc2c(c1)OCCn1cc(N3C(=O)OCC3C(F)F)nc1-2)C(N)=O
80.8
CC1(C)CCC(Nc2ncc(C(F)(F)F)c(-c3c[nH]c4c(P(C)(C)=O)c(C#N)ccc34)n2)CN1 (stereo not given) + CC(Nc1ncnc2nc[nH]c12)c1cc2cccc(Cl)c2c(=O)n1-c1ccccc1
103
CC1(C)CCC(CN2CCN(c3ccc(C(=O)NS(=O)(=O)c4ccc(NCC5CCOCC5)c([N+](=O)[O-])c4)c(Oc4cnc5[nH]ccc5c4)c3)CC2)=C(c2ccc(Cl)cc2)C1 + COc1c(OCCCN2CCOCC2)ccc2c3n(c(=NC(=O)c4cnc(N)nc4)nc12)CCN3
76.9
CC(Cn1ccc(-c2ccc(C#N)c(Cl)c2)n1)NC(=O)c1cc(C(C)O)[nH]n1 (stereo not given) + COc1c(OCCCN2CCOCC2)ccc2c3n(c(=NC(=O)c4cnc(N)nc4)nc12)CCN3
81.7

**Query** Report measured viability, T/C; entry is Cn1ncnc1[C@H]1c2n[nH]c(=O)c3cc(F)cc(c23)N[C@@H]1c1ccc(F)cc1 + Cc1nc(NC(=O)N2CCCC2C(N)=O)sc1-c1ccnc(C(C)(C)C(F)(F)F)c1
**Result** 109

Source of measurements: PubChem BioAssay AID1963962
